IC50, Inosine-5'-monophosphate dehydrogenase 2 (Homo sapiens), per-entry values.

Recorded results for 5 compounds are shown here.
Structure Smiles String: CN(C(=O)CO)c1ccccc1-c1cnc(Nc2ccc(-c3cnco3)c(Cl)c2)o1
IC50: 41 nM
//
Structure Smiles String: Cc1nc(C)c(-c2ccc(Nc3ncc(-c4ccccc4)o3)cc2)o1
IC50: > 2000 nM
//
Structure Smiles String: COc1cc(Nc2ncc(-c3ccccc3N(C)C(=O)CN3CCOCC3)o2)ccc1-c1cocn1
IC50: 91 nM
//
Structure Smiles String: Oc1cc(Nc2ncc(-c3ccccc3)o2)ccc1-c1cnco1
IC50: > 1600 nM
//
Structure Smiles String: c1ccc(-c2cnc(Nc3ccc(-c4cocn4)cc3)o2)cc1
IC50: > 5000 nM

-- ask Need IC50, item CN(C(=O)CN1CCOCC1)c1ccccc1-c1cnc(Nc2ccc(-c3cnco3)c(Br)c2)o1
-- reply 28 nM

-- ask Record: COc1cc(Nc2ncc(-c3ccccc3)o2)c(F)cc1-c1cnco1
-- reply > 5000 nM

-- ask Record: Cc1ncoc1-c1ccc(NC(=O)C(=O)NC(C)(C)C)cc1
-- reply > 5000 nM

-- ask Record: Cc1cc(Nc2ncc(-c3ccccc3N(C)C(=O)CO)o2)ccc1-c1cnco1
-- reply 100 nM

-- ask Record: COc1cc(Nc2ncc(-c3ccccc3)o2)ccc1-c1ncco1
-- reply 190 nM

-- ask Record: COc1cc(Nc2ncc(-c3ccccc3)o2)ccc1-c1cnc(C)o1
-- reply > 2000 nM

* * *

# Target System: Inosine-5'-monophosphate dehydrogenase 2 (Homo sapiens, UniProt P12268)
// NB: equality with 200 nM counts as F; only IC50 strictly below is T

Structure Smiles String: COc1c(-c2cnco2)ccc(Nc2ncc(-c3ccccc3)o2)c1Cl
Assigned Class: F

-- ask Please let me know if CN(C(=O)CO)c1ccccc1-c1cnc(Nc2ccc(-c3cnco3)c(Br)c2)o1 shows IC50 below 200 nM.
-- reply T

-- ask Record: COc1cc2nc(-c3ccccc3)cc(O)c2cc1-c1cocn1
-- reply F

-- ask Record: COc1cc(Nc2ncc(-c3ccccc3)o2)c(Cl)cc1-c1cnco1
-- reply F

-- ask Record: Clc1cc(Nc2ncc(-c3ccccc3)o2)ccc1-c1cnco1
-- reply T

-- ask Record: Cc1ncoc1-c1ccc(NC(=O)/C=C/c2ccco2)cc1
-- reply F

-- ask Record: Clc1cc(Nc2ncc(-c3ccccc3)o2)ccc1-c1cocn1
-- reply F

-- ask Record: CC(C)(C)NC(=O)C(=O)Nc1ccc(-c2cnco2)cc1
-- reply F

-- ask Record: COc1cc(Nc2ncc(-c3ccccc3)o2)ccc1-c1ocnc1C
-- reply F

* * *

# Test system: CCRF-CEM
# Measurement Protocol: Inhibition of CEM cell proliferation.
# Assay type: functional, cell-based
# Test Conditions: Homo sapiens
Measured pIC50, listed per entry for reference.
Remember the convention: pIC50 equals -log10 of concentration in molar.

Recorded results for 2 molecules are shown here.
Structure Smiles String: CC(C)(C)NC(=O)C(=O)Nc1ccc(-c2cnco2)c(Br)c1
pIC50: 5.26
--
Structure Smiles String: CN(C(=O)CO)c1ccccc1-c1cnc(Nc2ccc(-c3cnco3)c(Cl)c2)o1
pIC50: 5.44

-- ask Need pIC50, item CN(C(=O)CN1CCOCC1)c1ccccc1-c1cnc(Nc2ccc(-c3cnco3)c(Br)c2)o1
-- reply 5.49

-- ask Record: CNc1nc(Nc2ccc(-c3cnco3)c(OC)c2)nc(-c2ccccc2)n1
-- reply 5.43

-- ask Record: CN(C(=O)CO)c1ccccc1-c1cnc(Nc2ccc(-c3cnco3)c(Br)c2)o1
-- reply 5.62

-- ask Record: COc1cc(NC(=O)Nc2cccc(C)c2)ccc1-c1cnco1
-- reply 5.64

-- ask Record: Cc1cc(Nc2ncc(-c3ccccc3N(C)C(=O)CN3CCOCC3)o2)ccc1-c1cnco1
-- reply 5.52

* * *

# Test system: CCRF-CEM
# Measurement Protocol: Inhibition of CEM cell proliferation.
# Type: functional, cell-based
# Test Conditions: Homo sapiens
Measured pIC50, listed per entry for reference.
Remember the convention: pIC50 equals -log10 of concentration in molar.

Structure Smiles String: COc1cc(Nc2ncc(-c3ccccc3N(C)C(=O)CO)o2)ccc1-c1cnco1
pIC50: 5.85
--
Structure Smiles String: COc1cc(Nc2ncc(-c3ccccc3N(C)C(=O)CN3CCOCC3)o2)ccc1-c1cocn1
pIC50: 5.00
--
Structure Smiles String: COc1cc(Nc2ncc(-c3ccccc3N(C)C(=O)CO)o2)ccc1-c1cocn1
pIC50: 5.43
--
Structure Smiles String: COc1cc(Nc2ncc(-c3ccccc3)o2)ccc1-n1cncn1
pIC50: 5.08

-- ask Need pIC50, item COc1cc2nc(-c3ccccc3)cc(O)c2cc1-c1cocn1
-- reply 5.46

* * *

# Target System: Inosine-5'-monophosphate dehydrogenase 2 (Homo sapiens)
# Measurement Protocol: Inhibition of inosine-5'-monophosphate dehydrogenase 2.
# Type: single protein
pIC50: −log10 of the molar value.
Use 7 as the dividing line for pIC50, with the line itself on the fulfilled side and lower values as not fulfilled.

These solved cases illustrate the format of a correct answer.
Structure Smiles String: CCOc1cc(Nc2ncc(-c3ccccc3)o2)ccc1-c1cnco1
Target System: Inosine-5'-monophosphate dehydrogenase 2 (Homo sapiens)
Assigned Class: not fulfilled
//
Structure Smiles String: Cc1cc(Nc2ncc(-c3ccccc3)o2)ccc1-c1cocn1
Target System: Inosine-5'-monophosphate dehydrogenase 2 (Homo sapiens)
Assigned Class: not fulfilled
//
Structure Smiles String: Cc1cccc(NC(=O)Nc2ccc(-c3cnco3)c(Cl)c2)c1
Target System: Inosine-5'-monophosphate dehydrogenase 2 (Homo sapiens)
Assigned Class: fulfilled
//
Structure Smiles String: COc1cc(Nc2ncc(-c3ccccc3N(C)C(=O)CO)o2)ccc1-c1cocn1
Target System: Inosine-5'-monophosphate dehydrogenase 2 (Homo sapiens)
Assigned Class: fulfilled
//
Structure Smiles String: Cc1cccc(NC(=O)Nc2ccc(-c3ocnc3C)cc2)c1
Target System: Inosine-5'-monophosphate dehydrogenase 2 (Homo sapiens)
Assigned Class: not fulfilled

From here, focus on the item given below.
-- ask Dear colleague, could you confirm whether CNc1nc(Nc2ccc(-c3cocn3)c(OC)c2)nc(-c2ccccc2)n1 has pIC50 at or above 7?
-- reply not fulfilled

* * *

IC50, Inosine-5'-monophosphate dehydrogenase 2 (Homo sapiens, UniProt P12268), per-entry values.
Just the number in nM, nothing appended.

Structure Smiles String: COc1cc(Nc2ncc(-c3ccccc3N(C)C(=O)CO)o2)ccc1-c1cnco1
Test Result: 21

Structure Smiles String: COc1cc(NC(=NC#N)Nc2ccccc2)ccc1-c1cnco1
Test Result: 240

Structure Smiles String: CCc1cc(Nc2ncc(-c3ccccc3N(C)C(=O)CN3CCOCC3)o2)ccc1-c1cnco1
Test Result: 310

Structure Smiles String: COc1cc(Nc2ncc(-c3ccccc3)o2)ccc1-n1cncn1
Test Result: 410

Structure Smiles String: Cc1cccc(NC(=O)Nc2ccc(-c3cnco3)cc2)c1
Test Result: 640

Structure Smiles String: CN(C(=O)CN1CCOCC1)c1ccccc1-c1cnc(Nc2ccc(-c3cnco3)c(Cl)c2)o1
Test Result: 47

Shift focus to the following entry.
-- ask Need IC50, item Cc1cc(Nc2ncc(-c3ccccc3N(C)C(=O)CN3CCOCC3)o2)ccc1-c1cnco1
-- reply 45

* * *

# Test system: CCRF-CEM
# Measurement Protocol: Inhibition of CEM cell proliferation.
# Assay type: functional, cell-based
# Test Conditions: Homo sapiens
Measured IC50, listed per entry for reference.

Structure Smiles String: CCc1cc(Nc2ncc(-c3ccccc3N(C)C(=O)CN3CCOCC3)o2)ccc1-c1cnco1
Test Result: > 10 µM

Structure Smiles String: COc1cc(Nc2ncc(-c3ccccc3)o2)ccc1-c1cnco1
Test Result: > 10 µM

-- ask Please state recorded IC50 (tested on CCRF-CEM) of Clc1cc(Nc2ncc(-c3ccccc3)o2)ccc1-c1cnco1
-- reply > 10 µM

* * *

# Test system: CCRF-CEM
# Measurement Protocol: Inhibition of CEM cell proliferation.
# Assay type: functional, cell-based
# Test Conditions: Homo sapiens
Measured pIC50, listed per entry for reference.
Remember the convention: pIC50 equals -log10 of concentration in molar.

Recorded results for 3 molecules are shown here.
Structure Smiles String: CCc1cc(Nc2ncc(-c3ccccc3N(C)C(=O)CO)o2)ccc1-c1cnco1
Target System: CCRF-CEM
pIC50: 5.35
--
Structure Smiles String: COc1cc(NC(=O)C(=O)NC(C)(C)C)ccc1-c1cnco1
Target System: CCRF-CEM
pIC50: 5.64
--
Structure Smiles String: Cc1cc(Nc2ncc(-c3ccccc3N(C)C(=O)CO)o2)ccc1-c1cnco1
Target System: CCRF-CEM
pIC50: 5.35

Shift focus to the following entry.
-- ask Need pIC50, item CN(C(=O)CN1CCOCC1)c1ccccc1-c1cnc(Nc2ccc(-c3cnco3)c(Cl)c2)o1
-- reply 5.37

* * *

Measured IC50, listed per entry for reference.
# Target System: Inosine-5'-monophosphate dehydrogenase 2 (Homo sapiens)

Recorded results for 3 compounds are shown here.
Structure Smiles String: COc1cc(Nc2ncc(-c3ccccc3)o2)ccc1-c1cocn1
Recorded Metric: IC50
Test Result: > 0.057 µM
--
Structure Smiles String: c1ccc(-c2cnc(Nc3ccc(-c4cnco4)cc3)o2)cc1
Recorded Metric: IC50
Test Result: > 5 µM
--
Structure Smiles String: Cc1ncoc1-c1ccc(Nc2ncc(-c3ccccc3)o2)cc1
Recorded Metric: IC50
Test Result: > 5 µM

-- ask Please state recorded IC50 (tested on Inosine-5'-monophosphate dehydrogenase 2 (Homo sapiens)) of CNc1nc(Nc2ccc(-c3cnco3)cc2)nc(-c2ccccc2)n1
-- reply > 5 µM

-- ask Record: CNc1nc(Nc2ccc(-c3cnco3)c(Cl)c2)nc(-c2ccccc2)n1
-- reply > 0.34 µM

-- ask Record: CNc1nc(Nc2ccc(-c3ocnc3C)cc2)nc(-c2ccccc2)n1
-- reply > 5 µM

Each recorded value in this set is attributed to ChEMBL document CHEMBL1145140.
